- System Under Test: CDK2/CycE (Homo sapiens)
- Construct: GST; purchased ProQinase GmbH (Freiburg, Germany); host or cells: insect cells (Sf-9)
- Procedure Text: CDK2/CycE kinase assay (TR-FRET)
- Assay type: biochemical
- Condition Notes: ATP 10 μM, values given in μM
Measured Endpoint: IC50 (µM)

# annotated cases, reported IC50 shown
| Compound | IC50 / µM |
| --- | --- |
| NS(=O)(=O)Cc1cccc(Nc2ncnc(-c3ccc(F)cc3OCC3CC3)n2)c1 | 1.6 |
| COc1ccccc1-c1cc(Nc2cccc(CS(=O)(=O)N(C)C)c2)ncn1 [Ref4, reference compound] | 2.7 |

[I] COc1ccccc1-c1cc(Nc2cccc(CS(N)(=O)=O)c2)ncn1 [Ref1, reference compound]
[II] NC(=O)c1ccc(Nc2ncnc(-c3ccccc3NC(=O)c3ccccc3)n2)cc1 [Ref5, reference compound]
Consider I and II . Which of these has its IC50 at a higher number? The response must carry the label of the picked entry. II

----------
- System Under Test: CDK9/CycT1 (Homo sapiens, UniProt P50750)
- Construct: Recombinant full-length His-tagged human CDK9 and CycT1; His; purchased Invitrogen PV4131; host or cells: insect cells
- Sequence (O60563 whole entry partner, one chain of several): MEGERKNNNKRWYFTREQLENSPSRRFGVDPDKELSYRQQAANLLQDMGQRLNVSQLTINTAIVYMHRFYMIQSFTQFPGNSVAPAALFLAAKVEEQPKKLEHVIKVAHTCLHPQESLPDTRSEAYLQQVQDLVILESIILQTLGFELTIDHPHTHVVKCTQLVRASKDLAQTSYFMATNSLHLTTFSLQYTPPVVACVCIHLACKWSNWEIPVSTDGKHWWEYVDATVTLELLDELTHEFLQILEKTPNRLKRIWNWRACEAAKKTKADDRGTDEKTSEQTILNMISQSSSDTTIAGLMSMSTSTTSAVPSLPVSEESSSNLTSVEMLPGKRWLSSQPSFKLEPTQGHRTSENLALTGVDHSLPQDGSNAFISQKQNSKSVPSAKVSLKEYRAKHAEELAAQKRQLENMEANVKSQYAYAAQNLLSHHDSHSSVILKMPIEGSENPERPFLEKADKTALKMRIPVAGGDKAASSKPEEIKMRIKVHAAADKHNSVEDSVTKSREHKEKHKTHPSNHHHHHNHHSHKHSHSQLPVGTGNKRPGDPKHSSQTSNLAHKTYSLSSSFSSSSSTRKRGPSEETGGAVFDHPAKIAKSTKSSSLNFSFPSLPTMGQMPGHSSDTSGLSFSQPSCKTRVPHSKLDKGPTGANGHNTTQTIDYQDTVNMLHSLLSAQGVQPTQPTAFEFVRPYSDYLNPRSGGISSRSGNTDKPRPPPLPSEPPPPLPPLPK
- Procedure Text: CDK9/CycT1 kinase assay (TR-FRET)
- Assay type: biochemical
- Condition Notes: ATP 10 μM, values in nM
Measured Endpoint: IC50 (nM)

[P] CC(C)Oc1cc(F)ccc1-c1ncnc(Nc2cccc(CS(N)(=O)=O)c2)n1 [Compound U2]
[Q] NS(=O)(=O)Cc1cccc(Nc2ncnc(-c3ccccc3OCc3ccccc3)n2)c1 [Compound B13]
[R] NS(=O)(=O)Cc1cccc(Nc2ncnc(-c3ccccc3Oc3ccccc3)n2)c1 [Compound B14]
[S] COc1c(-c2ncnc(Nc3cccc(CS(N)(=O)=O)c3)n2)ccc(F)c1F [Compound U6]
[T] COc1cc(F)ccc1-c1ncnc(Nc2cccc(CS(N)(=O)=O)c2)n1 [Compound B2]
// TODO: order the 5 compounds above by IC50, descending Dear reader, please state the labels in the requested order. S, R, P, T, Q

----------
- System Under Test: CDK2/CycE (Homo sapiens, UniProt P24941)
- Construct: GST; purchased ProQinase GmbH (Freiburg, Germany); host or cells: insect cells (Sf-9)
- Procedure Text: CDK2/CycE kinase assay (TR-FRET)
- Type: biochemical
- Condition Notes: ATP 10 μM, values in nM
- Experimental: CDK2/CycE-inhibitory activity of compounds of the present invention was quantified employing the CDK2/CycE TR-FRET assay as described in the following paragraphs. […] The resulting mixture was incubated at 22° C. for one hour to allow the formation of a complex between the phosphorylated biotinylated peptide and the detection reagents. Subsequently, the amount of phosphorylated substrate was evaluated by measuring the resonance energy transfer from the Eu-chelate to the streptavidine-XL. […]
Where a name gives a salt, the structure may show the parent alone.
Measured Endpoint: IC50 (nM)

| Compound | Unit | IC50 |
| --- | --- | --- |
| COc1cc(F)c(F)cc1-c1ncnc(Nc2cccc(CS(N)(=O)=O)c2)n1 | nM | 930 |
| COc1cc(F)ccc1-c1ncnc(Nc2cccc(CS(N)(=O)=O)c2)n1 [B2′, hydrochloride] | nM | 670 |
| CC(C)Oc1cc(F)ccc1-c1ncnc(Nc2cccc(CS(N)(=O)=O)c2)n1 | nM | 880 |

[1] COc1cc(F)ccc1-c1ncnc(Nc2cccc(CS(N)(=O)=O)c2)n1 [Compound B2]
[2] COc1ccccc1-c1ncnc(Nc2cccc(S(N)(=O)=O)c2)n1
[3] COc1cc(F)ccc1-c1ncnc(Nc2ccc(S(C)(=O)=O)nc2)n1
Sort low-to-high on IC50, please. Dear reader, please state the labels in the requested order. 3, 2, 1

----------
- System Under Test: CDK9 (Homo sapiens)
- Construct: purchased Invitrogen
- Sequence (P50750 whole entry): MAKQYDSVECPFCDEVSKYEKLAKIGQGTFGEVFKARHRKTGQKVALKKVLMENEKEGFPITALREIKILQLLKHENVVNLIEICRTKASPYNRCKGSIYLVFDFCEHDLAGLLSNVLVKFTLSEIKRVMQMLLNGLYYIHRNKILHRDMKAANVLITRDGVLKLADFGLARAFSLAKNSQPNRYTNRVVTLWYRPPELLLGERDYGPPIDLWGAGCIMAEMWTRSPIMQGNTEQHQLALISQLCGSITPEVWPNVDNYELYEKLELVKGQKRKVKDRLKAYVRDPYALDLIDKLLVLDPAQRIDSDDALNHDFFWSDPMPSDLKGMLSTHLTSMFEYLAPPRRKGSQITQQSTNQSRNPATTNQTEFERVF
- Procedure Text: Lance Ultra KinaSelect Assay, CDK9
- Format: biochemical
- Condition Notes: read-out: Inhibition (IC50) CDK9
pIC50: −log10 of the molar value. Where a name gives a salt, the structure may show the parent alone.
Measured Endpoint: pIC50

# annotated cases, reported pIC50 shown
| Compound | Result |
| --- | --- |
| COc1ccccc1-c1ncnc(Nc2ccccc2)n1 [Compound P1] | 6.03 |
| COc1ccccc1-c1ncnc(Nc2cccc(S(N)(=O)=O)c2)n1 [C1′, trifluoroacetic acid salt] | 7.68 |
| COc1cc(Cl)ccc1-c1ncnc(Nc2cccc(CS(N)(=O)=O)c2)n1 | 7.79 |
| NS(=O)(=O)Cc1cccc(Nc2ncnc(-c3ccccc3OCc3ccccc3)n2)c1 [B13′, trifluoroacetic acid salt] | 8.24 |
| COc1ccccc1-c1ncnc(Nc2cccc(CCS(N)(=O)=O)c2)n1 [Compound D1] | 6.86 |
| COc1cc(F)ccc1-c1ncnc(Nc2cccc(CCS(N)(=O)=O)c2)n1 [Compound D2] | 7.89 |

[a] COc1cc(F)ccc1-c1ncnc(Nc2cccc(CS(N)(=O)=O)c2)n1 [B2″, trifluoroacetic acid salt]
[b] COc1ccccc1-c1ncnc(Nc2cccc(NS(C)(=O)=O)c2)n1
Lower value for measured pIC50? Options: a , b The response must carry the label of the picked entry. b
(b: 7.14, a: 7.94)

----------
- Tested on: NF-kappaB reporter gene activation in HEK293 cells
- Procedure Text: NF-kappaB reporter assay
- Assay type: cell-based
- Condition Notes: Homo sapiens, 20 ng/ml TNF alpha, 5 h
Where a name gives a salt, the structure may show the parent alone.
Measured Endpoint: pIC50
Please note pIC50 is a logarithmic value: minus log10 of concentration in mol/L. Answer with that number alone.

| Compound | Result |
| --- | --- |
| COc1ccc(F)cc1-c1ncnc(Nc2cccc(CS(N)(=O)=O)c2)n1 | 5.61 |

Identify pIC50 associated with the compound `COc1ccccc1-c1ncnc(Nc2cccc(NS(C)(=O)=O)c2)n1` 5.26

Identify pIC50 associated with the compound `COc1cccc(F)c1-c1ncnc(Nc2cccc(CS(N)(=O)=O)c2)n1` 5.01

Identify pIC50 associated with the compound `COc1cnccc1-c1ncnc(Nc2cccc(CS(N)(=O)=O)c2)n1` 4.70

Identify pIC50 associated with the compound `NS(=O)(=O)Cc1cccc(Nc2ncnc(-c3ccccc3OCc3ccncc3)n2)c1` 6.02

Identify pIC50 associated with the compound COc1ccccc1-c1ncnc(Nc2cccc(S(N)(=O)=O)c2)n1 [C1′, trifluoroacetic acid salt] 5.83

----------
- System: HeLa cells
- Procedure Text: Cell viability, HeLa cells
- Assay type: cell-based
- Condition Notes: Homo sapiens
pIC50: −log10 of the molar value. Where a name gives a salt, the structure may show the parent alone.
Measured Endpoint: pIC50

# annotated cases, reported pIC50 shown
| Molecule | pIC50 |
| --- | --- |
| COc1cc(F)ccc1-c1ncnc(Nc2ccc(S(C)(=O)=O)nc2)n1 [Compound U8] | 5.38 |
| COc1cc(F)c(F)cc1-c1ncnc(Nc2cccc(CS(N)(=O)=O)c2)n1 [Compound U7] | 5.92 |
| N#Cc1cc(F)ccc1-c1ncnc(Nc2cccc(CS(N)(=O)=O)c2)n1 [Compound U3] | 5.00 |
| COc1cc(F)ccc1-c1ncnc(Nc2cccc(CS(N)(=O)=O)c2)n1 [Compound B2] | 6.00 |

[A] NS(=O)(=O)Cc1cccc(Nc2ncnc(-c3ccccc3OCc3ccccc3)n2)c1 [B13′, trifluoroacetic acid salt]
[B] COc1ccccc1-c1ncnc(Nc2cccc(S(N)(=O)=O)c2)n1 [C1′, trifluoroacetic acid salt]
[C] CC(C)Oc1cc(F)ccc1-c1ncnc(Nc2cccc(CS(N)(=O)=O)c2)n1 [Compound U2]
[D] COc1ccccc1-c1cc(Nc2cccc(CS(=O)(=O)N(C)C)c2)ncn1 [Ref4, reference compound]
Sort low-to-high on pIC50, please. Dear reader, please state the labels in the requested order. D, C, B, A

----------
- System Under Test: CDK8/Cyclin C (Homo sapiens, UniProt P49336)
- Sequence (P49336 whole entry): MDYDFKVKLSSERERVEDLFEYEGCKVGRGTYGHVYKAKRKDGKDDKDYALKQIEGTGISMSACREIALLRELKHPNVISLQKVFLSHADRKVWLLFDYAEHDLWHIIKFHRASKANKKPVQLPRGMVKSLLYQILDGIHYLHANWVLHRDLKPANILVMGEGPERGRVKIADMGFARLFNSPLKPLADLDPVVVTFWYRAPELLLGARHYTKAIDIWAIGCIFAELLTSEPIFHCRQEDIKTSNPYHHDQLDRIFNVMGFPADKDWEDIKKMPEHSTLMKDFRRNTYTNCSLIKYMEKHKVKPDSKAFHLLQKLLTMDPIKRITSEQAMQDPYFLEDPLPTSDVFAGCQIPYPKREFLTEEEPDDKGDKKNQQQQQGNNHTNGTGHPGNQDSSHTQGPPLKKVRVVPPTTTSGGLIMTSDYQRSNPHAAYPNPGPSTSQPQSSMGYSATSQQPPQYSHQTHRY
- Sequence (P24863 whole entry partner): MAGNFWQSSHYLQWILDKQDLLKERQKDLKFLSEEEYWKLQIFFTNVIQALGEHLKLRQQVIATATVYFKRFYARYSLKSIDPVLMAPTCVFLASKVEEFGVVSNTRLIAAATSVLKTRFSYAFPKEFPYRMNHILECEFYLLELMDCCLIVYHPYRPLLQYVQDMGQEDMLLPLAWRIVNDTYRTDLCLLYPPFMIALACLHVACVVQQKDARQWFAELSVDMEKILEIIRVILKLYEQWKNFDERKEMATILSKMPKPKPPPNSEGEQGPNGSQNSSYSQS
- Procedure Text: LanthaScreen Eu Kinase Binding Assay, CDK8
- Condition Notes: tracer 236, read-out: Affinity (Kd) CDK8
Structures can show the parent of a compound that is named as a salt.
Measured Endpoint: Kd

# annotated cases, reported Kd shown
| Compound | System Under Test | Result |
| --- | --- | --- |
| COc1ccccc1-c1ncnc(Nc2cccc(NC(=O)Nc3ccccc3)c2)n1 [Compound N1] | CDK8/Cyclin C (Homo sapiens, UniProt P49336) | > 10 µM |
| COc1ccncc1-c1ncnc(Nc2cccc(CS(N)(=O)=O)c2)n1 [Compound B18] | CDK8/Cyclin C (Homo sapiens, UniProt P49336) | 1.76 µM |
| COc1cccc(F)c1-c1ncnc(Nc2cccc(CS(N)(=O)=O)c2)n1 [Compound B4] | CDK8/Cyclin C (Homo sapiens, UniProt P49336) | > 10 µM |
| NS(=O)(=O)Cc1cccc(Nc2ncnc(-c3ccccc3Oc3ccccc3)n2)c1 [Compound B14] | CDK8/Cyclin C (Homo sapiens, UniProt P49336) | 5.7 µM |
| NS(=O)(=O)Cc1cccc(Nc2ncnc(-c3ccccc3OCc3ccccc3)n2)c1 [B13′, trifluoroacetic acid salt] | CDK8/Cyclin C (Homo sapiens, UniProt P49336) | 4.86 µM |

Identify Kd associated with the compound COc1cc(Cl)ccc1-c1ncnc(Nc2cccc(CS(N)(=O)=O)c2)n1 [Compound B6] 6.78 µM

Identify Kd associated with the compound COc1ccc(Cl)cc1-c1ncnc(Nc2cccc(CS(N)(=O)=O)c2)n1 [Compound B7] > 10 µM

Identify Kd associated with the compound COc1cc(F)ccc1-c1ncnc(Nc2cccc(CS(N)(=O)=O)c2)n1 [B2″, trifluoroacetic acid salt] > 10 µM

Identify Kd associated with the compound NS(=O)(=O)Cc1cccc(Nc2ncnc(-c3cccc4c3OCO4)n2)c1 [Compound B15] > 10 µM

Identify Kd associated with the compound CCOc1ccccc1-c1ncnc(Nc2cccc(CS(N)(=O)=O)c2)n1 [Compound B12] > 10 µM

Identify Kd associated with the compound NS(=O)(=O)Cc1cccc(Nc2ncnc(-c3ccccc3OCc3ccncc3)n2)c1 [Compound B16] > 10 µM
